- experiment.notes: Pharmacokinetics of ERL and GEF in Wistar rats after four weeks consumption of water or flavoured water (plasma, UPLC-MS/MS, non-compartmental analysis)
- Assay type: in vivo
- measurement.context: male, Wistar, rat, plasma, po, 20 mg/kg, rats, 20 mg/kg oral; +Lime FW; average; time 5 h; read-out: Conc*10 (ng/mL plasma)
- Experimental: Fifty healthy male Wistar rats weighing 250 ± 30 g were obtained from the animal house, College of Pharmacy, King Saud University, Riyadh, Saudi Arabia. Rats were randomly divided into ten cages (n = 5). […] Cmax and tmax were obtained from the corresponding plasma concentration–time curve (Figs. 1A and 1B). […] The area under the plasma concentration–time curve from time 0 to the last sampling time t, 48 h (AUC0–t) was calculated using the trapezoidal rule. […]
recorded.metric: concentration at 5 h (ng/mL)

A. COc1cc2ncnc(Nc3ccc(F)c(Cl)c3)c2cc1OCCCN1CCOCC1 [GEF, Gefitinib]
B. C#Cc1cccc(Nc2ncnc3cc(OCCOC)c(OCCOC)cc23)c1 [ERL, Erlotinib]
# query: argmin of concentration at 5 h over A and B Select an item and report its label.
B
(B: 42.2 ng/mL, A: 490 ng/mL)
